Value source: patent US20070066551

System: IgE (Homo sapiens), P01854-1
Sequence (P01854 other isoform, or with tags, fused parts or gaps): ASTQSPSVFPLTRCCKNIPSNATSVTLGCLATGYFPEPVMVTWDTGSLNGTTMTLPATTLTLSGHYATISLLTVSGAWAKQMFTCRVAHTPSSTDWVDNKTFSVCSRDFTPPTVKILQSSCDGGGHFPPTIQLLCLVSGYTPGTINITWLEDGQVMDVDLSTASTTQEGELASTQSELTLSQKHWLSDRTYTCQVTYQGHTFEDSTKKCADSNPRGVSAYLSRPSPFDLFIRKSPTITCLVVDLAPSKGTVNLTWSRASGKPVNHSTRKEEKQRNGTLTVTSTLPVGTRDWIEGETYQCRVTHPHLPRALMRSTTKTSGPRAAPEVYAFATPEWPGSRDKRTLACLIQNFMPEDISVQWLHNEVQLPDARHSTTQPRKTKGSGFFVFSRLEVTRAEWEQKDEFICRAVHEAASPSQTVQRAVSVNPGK
RUN_DESCRIPTION: filter
CONDITIONS: dRmY; 2'-deoxy-5mC at 3 and 22; DPBS with Ca/Mg, BSA, ssDNA, tRNA; parent 20 nM
READOUT_KIND: Kd (nM)
Note: unit nM is implicit; provide only the numeric part.

Can you look up the measured Kd of AGCCUGGGGACCCAUGGGGGGCU [ARC751] for me?
15

---

Tested on: IgE (Homo sapiens), P01854-1
RUN_DESCRIPTION: filter
CONDITIONS: dRmY; PS between 16 and 17, 20 and 21; DPBS with Ca/Mg, BSA, RT; parent 12.6 nM
READOUT_KIND: Kd (nM)
Provide the reading as a plain figure in nM.

For IgE (Homo sapiens), P01854-1, provide Kd of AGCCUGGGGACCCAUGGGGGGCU [ARC702] please.
2.6
